- target-under-test: CDK2-CYCLIN E1 (Homo sapiens)
- assay-procedure: CDK protein kinase inhibition by ADP-Glo assay, CDK2-CYCLIN E1
- Type: biochemical
- particulars: ADP-Glo, 1000 μM ATP; Table 17; read-out: CDK2-CYCLINE, IC50
pIC50: −log10 of the molar value.
Please go through the items and note down their pIC50.

In: Which measured pIC50 value corresponds to O=C1NC2CC3(C2)CC(C3)Oc2cc(ccn2)Nc2cc(n[nH]2)[C@H]2CC[C@H](C2)O1 [Compound 128] ?
Out: ≥ 8.00

In: Which pIC50 is reported for this molecule? O=C1NC23CC(C/C=C/c4cc(ccn4)Nc4cc(n[nH]4)[C@H]4CC[C@H](C4)O1)(C2)C3 [Compound 107]
Out: ≥ 8.00

In: Reported pIC50 for C[C@H]1CC23CC(C2)(C3)NC(=O)O[C@@H]2CC[C@@H](C2)c2cc([nH]n2)Nc2ccnc(c2)O1 [Compound 102] : what is it?
Out: ≥ 8.00

In: Need pIC50 of C[C@@H]1CC23CC(C2)(C3)NC(=O)O[C@@H]2CC[C@@H](C2)c2cc([nH]n2)Nc2ccnc(c2)O1 [Compound 100] , thanks.
Out: ≥ 8.00

In: Query (molecule): O=C1NC2(CCCCc3cc(ccn3)Nc3cc(n[nH]3)[C@H]3CC[C@H](C3)O1)CC2 [Compound 116] ; field requested: pIC50
Out: ≥ 8.00
